# Test system: Plasmodium berghei
# METHOD_SUMMARY: Screen against P. berghei liver stage (PbLuc), transformed with Luciferase, at 10uM
# Assay type: functional, HepG2
# MEASUREMENT_PARAMETERS: tested at 10 uM
About 8,600 (12%) of roughly 69,000 compounds showed an effect of 50% or more. This excerpt belongs to a sample that is enriched for strong results.
Short version: INHIBITION at least 50% is Met, less is Not met.

[
  {
    "MOLECULE": "CC(C)(C)C(=O)c1ccsc1NC(=O)CCNC(=O)c1ccco1",
    "GROUP_LABEL": "Met"
  },
  {
    "MOLECULE": "CC(=O)Nc1sccc1C(=O)C(C)(C)C",
    "GROUP_LABEL": "Met"
  },
  {
    "MOLECULE": "CC(C)(CNC(=O)c1ccco1)CNC(=O)c1ccco1",
    "GROUP_LABEL": "Not met"
  },
  {
    "MOLECULE": "CC(C)(C)n1cc(C#N)cc1NC(=O)CCNC(=O)c1ccco1",
    "GROUP_LABEL": "Not met"
  },
  {
    "MOLECULE": "CNc1cc(C2CCCN2S(=O)(=O)c2cccc(F)c2)ccn1 (stereo unspecified)",
    "GROUP_LABEL": "Not met"
  }
]

* * *

# Test system: Plasmodium berghei
# METHOD_SUMMARY: Screen against P. berghei liver stage (PbLuc), transformed with Luciferase, at 10uM
# Assay type: functional, HepG2
# MEASUREMENT_PARAMETERS: tested at 10 uM
Among all 69,000 compounds or so, about 8,600 (12%) showed an effect of 50% or more. This excerpt belongs to a sample that is enriched for strong results.

[
  {
    "MOLECULE": "CCOC(=O)Cc1csc(NC(=O)c2cc3n(n2)CCCO3)n1",
    "INHIBITION / %": -42.6
  },
  {
    "MOLECULE": "CCCc1ccc(CN2CCC3(CCC(=O)N(C(C)C(=O)O)C3)CC2)o1 (stereo unspecified)",
    "INHIBITION / %": 1.74
  },
  {
    "MOLECULE": "CN(C)CCNC(=O)c1cc(-c2cnc(N3CCOCC3)nc2)cn1C",
    "INHIBITION / %": 19.4
  },
  {
    "MOLECULE": "CCCc1noc(C2CC(=O)N(Cc3ccccc3)C2)n1 (stereo unspecified)",
    "INHIBITION / %": 11.1
  },
  {
    "MOLECULE": "CCC1CN(CC(=O)N2CCN(C(C)=O)CC2)CCN1CCOC (stereo unspecified)",
    "INHIBITION / %": 4.52
  },
  {
    "MOLECULE": "Cn1cc(-c2cnc(N3CCCC3)nc2)cc1C(=O)O",
    "INHIBITION / %": -50.8
  },
  {
    "MOLECULE": "O=C(CN1CC(c2nc(-c3ccco3)no2)C1)NCCc1ccccc1",
    "INHIBITION / %": -63.6
  },
  {
    "MOLECULE": "CC(C)[C@H](N)C(=O)N1CCCC(C2=Nc3ccccc3S(=O)(=O)N2)C1 (stereo partly specified)",
    "INHIBITION / %": 26.4
  },
  {
    "MOLECULE": "Cn1cc(-c2cnc(N3CCOCC3)nc2)cc1C(=O)NCCO",
    "INHIBITION / %": 35.8
  },
  {
    "MOLECULE": "Cc1cn2nc(N3CCCC3Cn3nc(C)nc3C)sc2n1 (stereo unspecified)",
    "INHIBITION / %": -39.7
  },
  {
    "MOLECULE": "Cc1nnsc1CNC(=O)c1ccc2c(c1)nc(N1CCOCC1)n2C",
    "INHIBITION / %": -24.6
  }
]

* * *

# Test system: Plasmodium berghei
# METHOD_SUMMARY: Screen against P. berghei liver stage (PbLuc), transformed with Luciferase, at 10uM
# Format: functional, HepG2
# MEASUREMENT_PARAMETERS: tested at 10 uM
Among all 69,000 compounds or so, about 8,600 (12%) showed an effect of 50% or more. Shown is part of a subset that was picked to be rich in strong results.

[
  {
    "COMPOUND": "CC(C)N1CCC(Cc2cc(-c3ccccc3C(=O)O)ncn2)CC1",
    "SUBJECT_OF_TEST": "Plasmodium berghei",
    "INHIBITION / %": 18.8
  },
  {
    "COMPOUND": "CN(CCn1ccc2ccccc21)C(=O)Cc1n[nH]c(=O)[nH]1",
    "SUBJECT_OF_TEST": "Plasmodium berghei",
    "INHIBITION / %": 5.38
  },
  {
    "COMPOUND": "CN1CCC(Cc2noc(-c3cccc4c3OCC4)n2)CC1",
    "SUBJECT_OF_TEST": "Plasmodium berghei",
    "INHIBITION / %": 34.5
  },
  {
    "COMPOUND": "CC(C)CS(=O)(=O)CC(=O)NC1CCCCNC1=O (configuration not stated)",
    "SUBJECT_OF_TEST": "Plasmodium berghei",
    "INHIBITION / %": -79.1
  },
  {
    "COMPOUND": "CN1CC(=O)N(c2cnn(C)c2)CC12CCN(Cc1nccn1C)C2 (configuration not stated)",
    "SUBJECT_OF_TEST": "Plasmodium berghei",
    "INHIBITION / %": 11.8
  },
  {
    "COMPOUND": "O=C(CN1CCCC1Cn1cncn1)NCCOc1ccc(F)cc1 (configuration not stated)",
    "SUBJECT_OF_TEST": "Plasmodium berghei",
    "INHIBITION / %": 42.9
  },
  {
    "COMPOUND": "CN(CCn1ccc2ccccc21)C(=O)Cc1nnn[nH]1",
    "SUBJECT_OF_TEST": "Plasmodium berghei",
    "INHIBITION / %": 62.8
  },
  {
    "COMPOUND": "CC(C)N1CCC(Cc2cncc(-c3ccccc3C(=O)O)n2)C1 (configuration not stated)",
    "SUBJECT_OF_TEST": "Plasmodium berghei",
    "INHIBITION / %": 15.9
  },
  {
    "COMPOUND": "CCc1[nH]ncc1C(=O)N1CCCC(n2ccnc2C)C1 (configuration not stated)",
    "SUBJECT_OF_TEST": "Plasmodium berghei",
    "INHIBITION / %": 7.12
  },
  {
    "COMPOUND": "CCCC(=O)Nc1cccc([C@H]2C[C@@H](NC(C)=O)CCO2)c1",
    "SUBJECT_OF_TEST": "Plasmodium berghei",
    "INHIBITION / %": 33.85
  },
  {
    "COMPOUND": "Cc1ccc2cc(CNCCN3CCCC3)c(=O)[nH]c2c1",
    "SUBJECT_OF_TEST": "Plasmodium berghei",
    "INHIBITION / %": 39.7
  },
  {
    "COMPOUND": "Cc1cnn(CC2CCCN2Cc2cn3ccsc3n2)c1 (configuration not stated)",
    "SUBJECT_OF_TEST": "Plasmodium berghei",
    "INHIBITION / %": 37.9
  }
]

* * *

INHIBITION by entry:
# System: Plasmodium berghei
# METHOD_SUMMARY: Screen against P. berghei liver stage (PbLuc), transformed with Luciferase, at 10uM
# Format: functional, HepG2
# MEASUREMENT_PARAMETERS: tested at 10 uM
In all, about 69,000 compounds went through this assay and about 8,600 (12%) showed an effect of 50% or more. What follows is part of a selection rich in strong results, with near analogues and random picks from the rest.

[
  {
    "COMPOUND": "CC(C)CNC(=O)C1=NOC2(CCN(Cc3cccc(C#N)c3)C2)C1 (stereo unspecified)",
    "INHIBITION / %": 20.6
  },
  {
    "COMPOUND": "CC(C)CNC(=O)C1=NOC2(CCN(Cc3ccc(C(C)C)cc3)C2)C1 (stereo unspecified)",
    "INHIBITION / %": 80.2
  },
  {
    "COMPOUND": "O=C(NCC1CC1)C1=NOC2(CCN(Cc3ccc4c(c3)OCO4)C2)C1 (stereo unspecified)",
    "INHIBITION / %": 6.38
  },
  {
    "COMPOUND": "Cc1cccc(CN2CCC3(CC(C(=O)NCC(C)C)=NO3)C2)c1 (stereo unspecified)",
    "INHIBITION / %": 76.2
  },
  {
    "COMPOUND": "Cc1ccc(CN2CCC3(CC(C(=O)NCC4CC4)=NO3)C2)cc1C (stereo unspecified)",
    "INHIBITION / %": 31.2
  },
  {
    "COMPOUND": "COc1ccc(CN2CCC3(CC2)CC(CC(=O)NC(C)C)CO3)cc1 (stereo unspecified)",
    "INHIBITION / %": 18.6
  },
  {
    "COMPOUND": "COc1ccc(NC(=O)NCC(O)c2ccccc2F)c(OC)c1 (stereo unspecified)",
    "INHIBITION / %": 3.15
  },
  {
    "COMPOUND": "COc1ccccc1OC1CN(Cc2ccc(C(=O)O)cc2)C1",
    "INHIBITION / %": 14.3
  },
  {
    "COMPOUND": "CC(=O)c1ccc(CN2CC(Oc3ccccc3C)C2)cc1",
    "INHIBITION / %": 52
  },
  {
    "COMPOUND": "COCc1ncc(CN2CC(Oc3c(C)cccc3C)C2)cn1",
    "INHIBITION / %": 31.2
  },
  {
    "COMPOUND": "COc1ccc(CN2CCC3(CC(C(=O)NCC(C)C)=NO3)C2)cc1 (stereo unspecified)",
    "INHIBITION / %": 78.2
  }
]
